- procedure.text: Pharmacokinetic study in mice
- Assay type: in vivo
- test.settings: mouse plasma
assay.endpoint: Cmax (ng/mL)
Give just the number in ng/mL; leave the unit off.

**Q:** Consider the compound CC(=O)N1CCC(NC(=O)NC23CC4CC(CC(C4)C2)C3)CC1 [Compound 2] . State its measured Cmax.
**A:** 6490

**Q:** Consider the compound O=C(Nc1ccc(C(F)(F)F)cc1)Nc1cccc(C(=O)N2CCOCC2)c1 [Compound 1] . State its measured Cmax.
**A:** 9920

====

- procedure.text: Pharmacokinetic study in mice
- Assay type: in vivo
- test.settings: mouse plasma; read-out: mean resident time (MRT)
Listing of recorded MRT by entry.
Give just the number in h; leave the unit off.

smiles.code | assay.endpoint | quantitative.readout
CC(=O)N1CCC(NC(=O)NC23CC4CC(CC(C4)C2)C3)CC1 | MRT | 1.3

Please examine the following record next.
**Q:** Consider the molecule `O=C(Nc1ccc(C(F)(F)F)cc1)Nc1cccc(C(=O)N2CCOCC2)c1` . State its measured MRT.
**A:** 5.6
